# Test system: P388 leukemia ip, CD2F1 mice, survival T/C
# assayProcedure: NCI In Vivo Anticancer Drug Screen. Data for tumor model P388 Leukemia (intraperitoneal) in CD2F1 (CDF1) mice
# experimentalContext: endpoint: median survival time; dose: 6.25 mg/kg/injection; schedule: Q01DX009 (ip); vehicle: saline
# Experimental: The antitumor activity of compounds was measured in mice bearing transplantable tumors. Survival or tumor size were measured and the results are expressed as the measurement made in the treated group (T) divided by the measurement made in the vehicle treated control group (C). The tumor model used in this assay is P388 Leukemia (intraperitoneal) in CD2F1 (CDF1) mice
Toxic doses and inconclusive results are not listed. How the source made its calls: active means survival T/C of 150% or more; inactive means T/C below 125% in these data.
Labels: active, inactive

compound | groupLabel
Nc1ncnc2c1cnn2CCCl | inactive
CCN(CC)P(=O)(N1CC1)N1CC1 | active
Nc1nc2c(ncn2C2OC(CO)C(O)C2O)c(=O)[nH]1.Nc1nc2c(ncn2C2OC(CO)C(O)C2O)c(=O)[nH]1.[NH2-].[NH2-].[Pt+2] (stereo unspecified) | inactive
NNc1ncnc2nc[nH]c12 | inactive
CSCCC(NC=O)C(=O)O (stereo unspecified) | inactive
CC[n+]1ccc(/C=C\c2c(Cl)cccc2Cl)cc1 | inactive

====

# System: P388 leukemia ip, CD2F1 mice, survival T/C
# assayProcedure: NCI In Vivo Anticancer Drug Screen. Data for tumor model P388 Leukemia (intraperitoneal) in CD2F1 (CDF1) mice
# experimentalContext: endpoint: median survival time; dose: 100.0 mg/kg/injection; schedule: Q04DX003 (ip); vehicle: saline; higher = longer survival
Inconclusive results and toxic doses are left out.

compound | T/C
Cc1ccccc1C1NC(c2ccccc2C)C2CCCC1C2=O (configuration not stated) | 89 % of control
CN(C)CCc1ccccn1 | 94 % of control
NC(=O)CCn1cnc2c(N)ncnc21 | 99 % of control
N#Cc1cc(C23CCC(C2)N3)ccc1[N+](=O)[O-] (configuration not stated) | 105 % of control
Cn1c(=O)c2c(nc(/N=C/c3ccncc3)n2C)n(C)c1=O | 101 % of control
CCN(CC)CCCNc1cnc2ccc(OC)cc2n1 | 103 % of control
[O-]/[N+](=C\c1ccccc1)C(c1ccccc1)c1ccccc1 | 100 % of control
C#CCOC(=O)C(Cl)(Cl)Cl | 107 % of control
C/C(N)=C/C(=O)c1ccccc1 | 102 % of control
Cc1ccccc1Nc1nc(-c2ccccc2)nc(N)c1N=O | 100 % of control
CC1CN=C(c2ccc(NC(=O)Nc3ccc(C(=O)Nc4ccc(C5=NCC(C)N5)cc4)cc3)cc2)N1 (configuration not stated) | 163 % of control
O=C1CN=C(c2ccccc2)c2cc(Cl)ccc2N1CC1CC1 | 100 % of control

====

# Tested on: P388 leukemia ip, CD2F1 mice, survival T/C
# assayProcedure: NCI In Vivo Anticancer Drug Screen. Data for tumor model P388 Leukemia (intraperitoneal) in CD2F1 (CDF1) mice
# experimentalContext: endpoint: median survival time; dose: 200.0 mg/kg/injection; schedule: Q01DX009 (ip); vehicle: saline with Tween-80; higher = longer survival
Toxic doses and inconclusive results are not listed.
Measured T/C accompanies every entry in the list below.
reportedProperty: T/C

compound | result
CC(C)(C)OC(=O)NC(Cc1c[nH]c2ccccc12)C(=O)ON1C(=O)CCC1=O (configuration not stated) | 105 % of control
CCCCNC(=O)OCc1c(COC(=O)NCCCC)c(-c2ccc(Cl)c(Cl)c2)n2c1CCC2 | 163 % of control
CC(=NCc1ccccc1)c1ccccc1O | 98 % of control
COC(=O)C(Cc1ccc(O)cc1)NS(=O)(=O)Cc1ccccc1 (configuration not stated) | 99 % of control
CCCCCCCCCCCCCCCCCc1n[nH]c(=S)o1 | 98 % of control
CCOC(=O)N1C=CN(C(=O)OCC)C1c1nccn1C(=O)OCC | 105 % of control
C=CCn1c(-c2ccccc2Cl)n[nH]c1=S | 99 % of control
CN1c2ccccc2SC12C(=O)N(c1ccccc1)C(=O)N2c1ccccc1 (configuration not stated) | 103 % of control
CN1C(=O)N/C(=C2/CCOC2=O)C1=O | 98 % of control
CN(C)c1ccc(/C=N/NC(=O)C(=O)NCc2ccco2)cc1 | 91 % of control
CCCCOCN(CCc1ccccc1)COCCCC | 152 % of control
CCOc1ccc(Br)cc1/C=N\N=C\c1cc(Br)ccc1OCC | 100 % of control

====

# Tested on: P388 leukemia ip, CD2F1 mice, survival T/C
# assayProcedure: NCI In Vivo Anticancer Drug Screen. Data for tumor model P388 Leukemia (intraperitoneal) in CD2F1 (CDF1) mice
# experimentalContext: endpoint: median survival time; dose: 15.0 mg/kg/injection; schedule: Q01DX005 (ip); vehicle: saline with Tween-80; higher = longer survival
Toxic doses and inconclusive results are not listed.

molecule | T/C
c1csc(-c2ccn[nH]2)c1 | 100 % of control
COc1ccc(C(Cl)(c2ccccc2)c2ccc(C(C)=O)cc2)cc1 (stereo not given) | 107 % of control
Nc1nnc2nc(CC(=O)c3cccc([N+](=O)[O-])c3Cl)c(=O)[nH]n12 | 106 % of control
O=C1NC(=O)c2c1c1cnn(-c3ccccc3)c1n1cccc21 | 96 % of control
Cc1cc2nc(CC(=O)c3ccc4ccccc4c3)c(=O)[nH]c2cc1C | 91 % of control
CC1NNC(=S)NN1 | 101 % of control
COc1cccc(Sc2ccc([N+](=O)[O-])c3no[n+]([O-])c23)c1 | 106 % of control
CNC(=S)/N=c1/sc([N+](=O)[O-])c(C)n1C | 95 % of control
Cc1cc(C)nc(NS(=O)(=O)c2ccc(Nc3c4ccccc4nc4c([N+](=O)[O-])cccc34)cc2)n1 | 97 % of control
NC(=O)c1ccccc1OC(=O)Nc1ccc(F)cc1 | 101 % of control

====

# Test system: P388 leukemia ip, CD2F1 mice, survival T/C
# assayProcedure: NCI In Vivo Anticancer Drug Screen. Data for tumor model P388 Leukemia (intraperitoneal) in CD2F1 (CDF1) mice
# experimentalContext: endpoint: median survival time; dose: 240.0 mg/kg/injection; schedule: Q01DX005 (ip); vehicle: saline with Tween-80; higher = longer survival
Inconclusive results and toxic doses are left out.
Measured T/C accompanies every entry in the list below.

compound | T/C
CC1(O)COC1(c1ccccc1)c1ccccc1 (configuration not stated) | 93 % of control
OC1c2ccccc2-c2cccc(N=Cc3ccc4c(c3)OCO4)c21 (configuration not stated) | 95 % of control
O=S(=O)(Nc1cccc(F)c1)c1ccc(F)cc1 | 93 % of control
COc1nc(NC2OCC(OC(C)=O)C(OC(C)=O)C2OC(C)=O)c(N=CC=Nc2c(NC3OCC(OC(C)=O)C(OC(C)=O)C3OC(C)=O)nc(OC)n(C)c2=O)c(=O)n1C (configuration not stated) | 91 % of control
O=C1NNC(=O)c2ccccc2C(=O)S1 | 97 % of control
Nc1ccc(Cn2ccnn2)cc1 | 101 % of control
COC(=O)c1nnn(-c2cc(Cl)ccc2Cl)c1C(=O)c1ccc(Cl)c(Cl)c1 | 87 % of control
O=C1C2CCSCN2C(=O)N1c1ccccc1 (configuration not stated) | 95 % of control
O=c1oc2ccccc2cc1S(=O)(=O)c1ccc(Cl)cc1 | 91 % of control
CCOC1(C(C)O)CC(c2ccccc2)=NO1 (configuration not stated) | 100 % of control
COC(=O)c1nnn(-c2ccccc2C(C)C)c1C(=O)c1ccccc1 | 104 % of control
COc1cc(/C=C/C(=O)Sc2ccccc2)cc(OC)c1O | 100 % of control
C[C@@H](O)c1nc(C(N)=O)cs1 | 106 % of control
O=[N+]([O-])c1ccc(/C=C/C(CCN2CCOCC2)=N/O)cc1 | 103 % of control
Cc1ccc(S(=O)(=O)NC(=O)NC2=NC(C)(C)N(c3ccc(Cl)c(Cl)c3)C(N)=N2)cc1 | 114 % of control
Cc1ncc(CO)c(C2NC(C(=O)O)CS2)c1O (configuration not stated) | 100 % of control
O=C1c2ccccc2C(=O)c2c1ccc1nc(Cl)c(=O)[nH]c21 | 94 % of control
O=C(CSc1nc2ccccc2[nH]1)NCCO | 100 % of control
O=C1Nc2ccccc2NC(=O)C(=C(c2ccccc2)c2ccccc2)C1=C(c1ccccc1)c1ccccc1 | 89 % of control
O=C(/N=C1\N=Nc2c(O)c(C3(c4nc5n(c4O)/C(=N/C(=O)Nc4ccc(Cl)cc4)N=N5)Cc4ccccc4C3=O)nn21)Nc1ccc(Cl)cc1 (configuration not stated) | 94 % of control
CCC1(C)C(=O)C(C)(CC)C1=O (configuration not stated) | 116 % of control
O=C1OC(Oc2ccccc2)c2cc3c(cc21)OCO3 (configuration not stated) | 99 % of control
O=C(Nc1cc(-c2ccccc2)[nH]n1)c1ccccc1Cl | 93 % of control
O=c1cc(-c2ccccc2)nc2cc(-c3ccco3)[nH]n12 | 111 % of control
CCC(O)(c1ccccc1)c1cnc(C)n1Cc1ccccc1 (configuration not stated) | 89 % of control
CC1(C)CN(C(=S)N2CC(C)(C)SC2=O)C(=O)S1 | 104 % of control
O=c1c(-c2ccccc2)coc2cc(O)ccc12 | 88 % of control
O=c1[nH]c2ccccc2nc1C1(F)CCCC1 | 89 % of control
O=C(O)C1CCCCC1c1c2ccc(=O)c(O)c-2oc2c(O)c(O)ccc12 (configuration not stated) | 121 % of control
CN(C)c1ccc(/C=N/NC(=O)CNC(=O)c2ccccc2)cc1 | 96 % of control
CCOC(=O)c1cn(CC)c2cc(-n3cccc3)ccc2c1=O | 92 % of control
CC(C)CC(=O)CC(=O)CCC(=O)Nc1ccc(Cl)cc1Cl | 100 % of control
O=C(Nc1cccc(C(F)(F)F)c1)Oc1ccc(Cl)c2cccnc12 | 105 % of control
CCOC(=O)C(c1ccccc1)c1cccc(C(C(=O)OCC)c2ccccc2)n1 (configuration not stated) | 87 % of control
S=C(SCc1nc(-c2ccc(Cl)cc2)no1)N1CCSCC1 | 105 % of control
COc1ccc(C2COc3c(ccc(O)c3O)C2)cc1OC (configuration not stated) | 94 % of control
CC1(CCC(=O)c2ccc3c(c2)OCO3)OCCO1 | 100 % of control
OC(CCCCOc1ccccc1)(c1ccccc1)c1ccccc1 | 101 % of control
O=[N+]([O-])c1cccnc1N=Nc1c(O)[nH]c2ccccc12 | 110 % of control
CCn1c(=S)[nH]c2sc3c(c2c1=O)CCCCC3 | 101 % of control
c1ccc2c(c1)[nH]c1c(N3CCOCC3)nnc(N3CCOCC3)c12 | 90 % of control
COc1cccc(/C=N/C(/N=C/c2cccc(OC)c2O)c2cccc(OC)c2O)c1O | 102 % of control
C[N+]1=C(c2ccc[nH]2)CC(C(=O)[O-])CC1 (configuration not stated) | 102 % of control
Cc1cccc(Cl)c1NC(=O)N(C)c1ccccc1 | 97 % of control
CNC(=O)Nc1cccc(C2(C)OCCS2)c1 (configuration not stated) | 99 % of control
COc1cc(C2C(C#N)=C(C)Nc3nc(N)nc(N)c32)cc(OC)c1OC (configuration not stated) | 104 % of control
CNC(=O)Nc1ccc(C2(C)SCCS2)cc1 | 90 % of control
